# Test system: T. gondii RH strain tachyzoites
# protocolNotes: Anti-T. gondii activity screening (viable tachyzoite count, Trypan blue)
# Format: cell-based, Toxoplasma gondii
# conditionNotes: 25 µM, 24 h, compared to untreated control
quantityMeasured: Viability Reduction of T. gondii Tachyzoites
Record the result as a number with its unit.

Consider the following items and state reported Viability Reduction of T. gondii Tachyzoites for each.
1. CCOC(=O)CCCCCNc1c2ccccc2nc2ccccc12
2. O=C(O)CCNc1c2ccccc2nc2ccccc12
3. COC(=O)C(Cc1c[nH]cn1)Nc1c2ccccc2nc2ccccc12 (stereo not drawn)
4. O=C(O)CCCCCCCNc1c2ccccc2nc2ccccc12
5. COC(=O)CCCCCCCNc1c2ccccc2nc2ccccc12
6. O=C(O)CCCNc1c2ccccc2nc2ccccc12

1: 24.7%; 2: 21.9%; 3: 4.5%; 4: 22.0%; 5: 15.2%; 6: 33.3%

* * *

# protocolNotes: MTT cytotoxicity assay on non-infected Vero cells
# Type: cell-based
# conditionNotes: Chlorocebus sabaeus (African green monkey), non-infected Vero cells (ATCC CCL-81), 72 h incubation
# Method: The Vero cell line (ATCC® CCL-81), derived from the kidney tissue of the Green African monkey (Chlorocebus sabaeus), was utilized as a model of non-infected cells in the cytotoxicity assay. […] In brief, Vero cells were seeded in a 96-well plate, at a density of 25,000 cells per well and incubated for 24 h at 37 °C in a 5% CO2 atmosphere. […] All samples, including controls and blanks, were analyzed in triplicates. […]
quantityMeasured: CC50 at 72 h (µM)
Numbers only, in µM.

Consider the following items and state reported CC50 at 72 h for each.
1. O=C(O)[C@H](Cc1ccccc1)Nc1c2ccccc2nc2ccccc12
2. O=C(O)CCCCCNc1c2ccccc2nc2ccccc12
3. COC(=O)CCCCCCCNc1c2ccccc2nc2ccccc12
4. COC(=O)C(Cc1c[nH]cn1)Nc1c2ccccc2nc2ccccc12 (stereo not drawn)
5. Cn1cc(CC(Nc2c3ccccc3nc3ccccc23)C(=O)O)c2ccccc21 (stereo not drawn)
6. O=C(O)CCNc1c2ccccc2nc2ccccc12
7. O=C(O)CCCCCCCNc1c2ccccc2nc2ccccc12

[50.2, 93, 88.4, 134, 60.2, 177, 154]

Consider the following items and state reported CC50 at 72 h for each.
1. CCOC(=O)CCCCCNc1c2ccccc2nc2ccccc12
2. O=C(O)CCCNc1c2ccccc2nc2ccccc12

1. 41.7
2. 102

* * *

# protocolNotes: Solubility by visual inspection
# Assay type: physicochemical
# conditionNotes: organic solvent or mixture, DMSO, tested up to 30 mM, read-out: Solubility in DMSO (clear and transparent solutions)
Kindly supply the reported solubility values for the records listed here.

Known results for compounds:
- compound: "O=C(O)CCCNc1c2ccccc2nc2ccccc12"
  valueObserved: "≥ 30 mM"
- compound: "Cn1cc(CC(Nc2c3ccccc3nc3ccccc23)C(=O)O)c2ccccc21 (stereo not drawn)"
  valueObserved: "≥ 30 mM"

Okay, now this compound:
Form: compound = CCOC(=O)CCCCCNc1c2ccccc2nc2ccccc12 ; solubility = ≥ 30 mM
